Test system: SadX
Assay type: biochemical
Conditions: hydroxylation of 1a (1 mM) to give 1b by 0.5 μM SadX, varying [salt]
Measure name: kcat (s⁻¹)
Give your result in s⁻¹ as a bare value.

Line notation | kcat (s⁻¹)
O=C[O-].[Na+] | 0.122
[Cl-].[Na+] | 0.197
[N-]=[N+]=[N-].[Na+] | 0.953

As a next step, examine the compound that follows.
// query For [Cs+].[F-] , what is its reported kcat?
// result 0.357
